Test system: UACC-257 melanoma
Assay: NCI-60 one-dose screen, 48 h (100 = growth as untreated, 0 = no growth, -100 = all killed)
Conditions: 10 µM unless noted
About 83,000 compounds went through this panel and 20% of them were active in at least one assay; those are over-represented in the sample as a whole.
READOUT_NAME: growth (%)
Express the result in % but write the number alone.

| COMPOUND | MEASUREMENT_TARGET | READOUT_UNITS | growth |
| --- | --- | --- | --- |
| O=S(=O)(NCCCNc1nccc(-c2c(-c3ccc(F)c(O)c3)nc3occn23)n1)c1ccc(Cl)cc1 | UACC-257 melanoma | % | 33.8 |
| CCCOC(=O)Nc1nc2ccc(SCC(C)C)cc2s1 | UACC-257 melanoma | % | 58.7 |
| COc1ccc(-c2nc3c(ncc4ccc(=O)[nH]c43)s2)cc1 | UACC-257 melanoma | % | 118 |
| Cc1ccc(C(=O)c2ccc(CC(=O)N/N=C/c3ccccc3O)n2C)cc1 | UACC-257 melanoma | % | 95.3 |
| CC(=O)Oc1ccc(N2C(=O)C(Cl)=C(Nc3cccc(C(F)(F)F)c3)C2=O)cc1 | UACC-257 melanoma | % | 97.1 |

Notebook: `CCCNC(=O)Nc1ccc2cc3ccc(NC(=O)NCCC)cc3nc2c1` , growth read as 87.5

Notebook: `CN1C(=O)/C(=C\c2nc([P+](c3ccccc3)(c3ccccc3)c3ccccc3)c(N3CCOCC3)o2)SC1=S` , growth read as 61.1

Notebook: `COc1cc(OC)c(NC(=O)c2cc3ccccc3cc2O)cc1Cl` , growth read as 59.8

Notebook: Nc1ncnc2c1C(c1ccc(Br)cc1)c1sc3c(F)cccc3c1O2 (stereo not drawn) , growth read as 114

Notebook: `CCCCNC(=O)Oc1ccc(/C(=C(/C)Cc2ccc(OC)cc2)c2ccc(OCCN(CC)CC)cc2)cc1` , growth read as 90.7

Notebook: `COC(=O)c1nc(-c2ccc(C)cc2)oc1S(=O)(=O)c1cccc(OC)c1` , growth read as 97.5

Notebook: `N#Cc1nc(-c2ccc(F)cc2)oc1S(=O)(=O)N1CCOCC1` , growth read as 93.9

Notebook: CCn1cc(C(=O)O)c(=O)c2cc(F)c(N3CCN(CC(=O)Nc4ccc(S(=O)(=O)Nc5nccc(C)n5)cc4)C(C)C3)c(F)c21 (stereo not drawn) , growth read as 114

Notebook: O=C(c1nn(-c2ccccc2)c2c1CC(NCc1ccc(F)cc1)CC2)N1CCCCC1 (stereo not drawn) , growth read as 101

Notebook: `O=C(NCCCl)Nc1ncccc1OCc1ccccc1` , growth read as 107
